// data source = patent US11109593B2

Test system: Scirpus juncoides
PROTOCOL: Test Example 1: herbicidal effect test by treatment of rice paddy soil (immediately after seeding)
Format: in vivo
CONDITION INFO: in Schoenoplectiella juncoides, 336 h, 120 g/10a active ingredient, dry weight vs untreated area, 14 days after treatment, read-out: Herbicidal rate (%) Scirpus juncoides
The following molecules are listed with their measured pest or weed control at 1200 g/ha values.

>  <MOLECULE>
CC(=O)N(c1ccccc1Cc1c(C)n(CC(C)C)oc1=O)S(=O)(=O)C(F)(F)F

>  <pest or weed control at 1200 g/ha>
100%

$$$$
>  <MOLECULE>
COCC(C)n1oc(=O)c(Cc2ccccc2NS(=O)(=O)C(F)(F)F)c1C (stereo not drawn)

>  <pest or weed control at 1200 g/ha>
90%

$$$$
>  <MOLECULE>
CCC(C)n1oc(=O)c(Cc2ccccc2N(C(=O)OC)S(=O)(=O)C(F)(F)F)c1C (stereo not drawn)

>  <pest or weed control at 1200 g/ha>
90%

$$$$
>  <MOLECULE>
Cc1c(Cc2ccccc2NS(=O)(=O)C(F)(F)F)c(=O)on1CC(C)C

>  <pest or weed control at 1200 g/ha>
90%

$$$$
>  <MOLECULE>
Cc1c(Cc2ccccc2N(S(=O)(=O)C(F)(F)F)S(=O)(=O)C(F)(F)F)c(=O)on1C(C)(C)C

>  <pest or weed control at 1200 g/ha>
90%

$$$$
>  <MOLECULE>
CCC(C)n1oc(=O)c(Cc2ccccc2N(S(=O)(=O)C(F)(F)F)S(=O)(=O)C(F)(F)F)c1C (stereo not drawn)

>  <pest or weed control at 1200 g/ha>
90%

$$$$
>  <MOLECULE>
Cc1c(Cc2ccccc2N(S(=O)(=O)C(F)(F)F)S(=O)(=O)C(F)(F)F)c(=O)on1CC(C)C

>  <pest or weed control at 1200 g/ha>
90%

$$$$
>  <MOLECULE>
COCC(C)n1oc(=O)c(Cc2ccccc2N(S(=O)(=O)C(F)(F)F)S(=O)(=O)C(F)(F)F)c1C (stereo not drawn)

>  <pest or weed control at 1200 g/ha>
90%

$$$$
>  <MOLECULE>
CCC(C)n1oc(=O)c(Cc2ccccc2NS(=O)(=O)C(F)(F)F)c1C (stereo not drawn)

>  <pest or weed control at 1200 g/ha>
100%

$$$$

###

System: broad leaf weeds (Lindernia pyxidaria and Monochoria vaginalis)
PROTOCOL: Test Example 1: herbicidal effect test by treatment of rice paddy soil (immediately after seeding)
Assay type: in vivo
CONDITION INFO: Monochoria vaginalis, 120 g/10a active ingredient, dry weight vs untreated area, 14 days after treatment
We use 80% as the dividing line for Herbicidal rate (%) Monochoria vaginalis: on or above the line is Met, below is Not met.

>  <MOLECULE>
Cn1oc(=O)c(Cc2ccccc2NS(=O)(=O)C(F)(F)F)c1C(F)(F)F

>  <ASSIGNED LABEL>
Not met

$$$$
>  <MOLECULE>
CCC(CC)n1oc(=O)c(Cc2ccccc2N(C(=O)CC(C)C)S(=O)(=O)C(F)(F)F)c1C

>  <ASSIGNED LABEL>
Met

$$$$
>  <MOLECULE>
CCCOC(=O)N(c1ccccc1Cc1c(C)n(C(C)COC)oc1=O)S(=O)(=O)C(F)(F)F (stereo not drawn)

>  <ASSIGNED LABEL>
Met

$$$$
>  <MOLECULE>
C=C(C)Cn1oc(=O)c(Cc2ccccc2NS(=O)(=O)C(F)(F)F)c1C

>  <ASSIGNED LABEL>
Not met

$$$$
>  <MOLECULE>
CCC(C)n1oc(=O)c(Cc2ccccc2N(C(=O)Oc2ccccc2)S(=O)(=O)C(F)(F)F)c1C (stereo not drawn)

>  <ASSIGNED LABEL>
Met

$$$$
>  <MOLECULE>
COC(=O)N(c1ccccc1Cc1c(C)n(C(C)C)oc1=O)S(=O)(=O)C(F)(F)F

>  <ASSIGNED LABEL>
Met

$$$$
>  <MOLECULE>
Cc1ccc(Cn2oc(=O)c(Cc3ccccc3NS(=O)(=O)C(F)(F)F)c2C)cc1

>  <ASSIGNED LABEL>
Met

$$$$
>  <MOLECULE>
Cc1c(Cc2ccccc2NS(=O)(=O)C(F)(F)F)c(=O)on1CCCl

>  <ASSIGNED LABEL>
Met

$$$$
>  <MOLECULE>
CCCCC(c1ccccc1)n1oc(=O)c(Cc2ccccc2NS(=O)(=O)C(F)(F)F)c1C (stereo not drawn)

>  <ASSIGNED LABEL>
Met

$$$$
>  <MOLECULE>
CCC(C)Cn1oc(=O)c(Cc2ccccc2N(C(=O)OCc2ccccc2)S(=O)(=O)C(F)(F)F)c1C (single isomer, unassigned) [1-788 (TLC top)]

>  <ASSIGNED LABEL>
Not met

$$$$
>  <MOLECULE>
Cc1c(Cc2ccccc2NS(=O)(=O)C(F)(F)F)c(=O)on1C1CCCc2ccccc21 (stereo not drawn)

>  <ASSIGNED LABEL>
Met

$$$$
